// reported protein stability index for each item listed
B1: INTS3 (parent)
chain: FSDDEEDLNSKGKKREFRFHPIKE

Variants of: B1
Experiment: protein stability index of a GFP-peptide fusion (GPS, HEK-293T) (PSI 1-6); higher = more stable;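 further: lentivirally expressed fusions sorted by FACS into six bins by GFP to DsRed ratio, PSI derived from sequencing read proportions per bin multiplied by bin number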
Settings: c terminus: a fixed tail appended
Number only, please.

D3F 2.38
E5A 2.81
P21K 4.55
D7T 2.58
F19A 5.07

Reported protein stability index for "G12E" was 3.02

Reported protein stability index for "D4I" was 2.38

Reported protein stability index for "G12S" was 2.65

Reported protein stability index for "F1Q" was 3

Reported protein stability index for "E5T" was 2.68
